The values you see were collected from patent US20180030151A1.

# System: recombinant human TFPI (tissue factor pathway inhibitor) (human, UniProt P10646 29-304)
# Test summary: cell-based or functional assay
Readout name: FXa assay % of FXa alone, 20 nM Ab, 10 nM TFPI
A bare number is not enough; add the unit after it.

Exercise: What value of FXa assay % of FXa alone, 20 nM Ab, 10 nM TFPI has been reported for the following binder? clone 3115 (antibody, V domains shown) VH: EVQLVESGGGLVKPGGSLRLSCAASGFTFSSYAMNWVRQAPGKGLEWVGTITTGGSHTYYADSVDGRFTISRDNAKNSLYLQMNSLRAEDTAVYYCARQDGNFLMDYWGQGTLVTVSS VL: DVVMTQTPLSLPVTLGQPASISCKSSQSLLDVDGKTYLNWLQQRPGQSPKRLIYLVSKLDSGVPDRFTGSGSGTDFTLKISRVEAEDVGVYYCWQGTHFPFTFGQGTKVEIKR
Solution: 69.1%

Exercise: Let us now turn to clone 3131 (antibody, V domains shown) VH: EVQLVESGGGLVKPGGSLRLSCAASGFTFSSYAMSWVRQAPGKGLEWVSTITTGGSYTYYADSVQGRFTISRDNAKNSLYLQMNSLRAEDTAVYYCARQDGQFLMDYWGQGTLVTVSS VL: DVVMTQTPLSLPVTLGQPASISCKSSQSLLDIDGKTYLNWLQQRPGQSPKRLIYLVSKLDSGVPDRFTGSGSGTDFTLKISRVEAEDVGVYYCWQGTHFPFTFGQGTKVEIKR
Solution: 61.6%

Exercise: Let us now turn to clone 3120 (antibody, V domains shown) VH: EVQLVESGGGLVKPGGSLRLSCAASGFTFSSYAMNWVRQAPGKGLEWVSTITTGGSYTYYADSVEGRFTISRDNAKNSLYLQMNSLRAEDTAVYYCARQDGYFLMDYWGQGTLVTVSS VL: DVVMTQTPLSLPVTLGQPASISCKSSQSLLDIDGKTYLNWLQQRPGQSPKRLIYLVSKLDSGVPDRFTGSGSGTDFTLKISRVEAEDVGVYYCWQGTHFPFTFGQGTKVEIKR
Solution: 81.3%

Exercise: Let us now turn to clone 4141 (antibody, V domains shown) VH: EVQLVESGGGLVKPGGSLRLSCAASGFTFSSYAMNWVRQAPGKGLEWVGTITTGGSHTYYADSVEGRFTISRDNAKNSLYLQMNSLRAEDTAVYYCARQDGYFLMDYWGQGTLVTVSS VL: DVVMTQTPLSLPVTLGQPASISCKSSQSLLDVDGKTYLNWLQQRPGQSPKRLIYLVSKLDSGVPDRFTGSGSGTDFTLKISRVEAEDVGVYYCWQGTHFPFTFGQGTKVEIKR
Solution: 80.5%
